Tested on: AMPK
assay-remarks: AMPK activation, cell based ELISA in Hep G2 cells
experimental-setup: 1 h incubation, DMSO control as 100%
readout-label: % activation pAMPK at 1 nM (%)
State the answer as a number, implicitly in %.

Take a look at these entries with their results.
[2H][C@]1(O)CC[C@@]2(C)C(=CCC3C2[C@@H](O)C[C@@]2(C)C3CC[C@@H]2C(C)=O)C1 (stereo partly drawn)	116
CC(O)C1CCC2C3CC=C4C[C@@H](O)CC[C@]4(C)C3[C@@H](O)C[C@]12C (stereo partly drawn)	102
CC(O)C1CCC2C3CC=C4CC5(CC[C@]4(C)C3[C@@H](O)C[C@]12C)OCCO5 (stereo partly drawn)	129
C[C@]12CCC(=O)CC1CCC1C2[C@@H](O)C[C@]2(C)C(=O)CCC12 (stereo partly drawn)	104
C[C@]12CC[C@H](O)CC1=CCC1C2[C@@H](O)C[C@@]2(C)C1CC[C@@H]2O (stereo partly drawn)	97

GET /values?readout=% activation pAMPK at 1 nM&item= CC[C@H]1CCC2C3CC=C4C[C@@H](O)CC[C@]4(C)C3[C@@H](O)C[C@@]21C (stereo partly drawn)
95

Likewise for C[C@]12C[C@H](O)C3C(CCC4=CC(=O)CC[C@@]43C)C1CCC2C(=O)O (stereo partly drawn) ?
132

Likewise for CC(=O)[C@H]1CCC2C3CCC4=CC(=O)CC[C@]4(C)C3[C@@](C)(O)C[C@@]21C (stereo partly drawn) ?
102

Likewise for CC(O)[C@H]1CC[C@H]2[C@@H]3CCC4=C[C@@H](O)CC[C@]4(C)[C@H]3[C@@H](O)C[C@]12C (stereo partly drawn) ?
95

Likewise for CC(=O)[C@H]1CCC2C3CCC4=CC(=O)CC[C@]4(C)C3[C@@H](O)C[C@@]21C (stereo partly drawn) ?
118

Likewise for CC(=O)[C@H]1CCC2C3CC=C4C[C@@H](O)CC[C@]4(C)C3[C@@H](O)C[C@@]21C (stereo partly drawn) ?
104

Likewise for CC(=O)C1CCC2C3CC=C4CC5(CC[C@]4(C)C3[C@@H](O)C[C@]12C)OCCO5 (stereo partly drawn) ?
105

Likewise for CN(C)C(=O)C1CCC2C3CCC4=CC(=O)CC[C@]4(C)C3[C@@H](O)C[C@]12C (stereo partly drawn) ?
105

Likewise for CC(O)[C@H]1CCC2C3CCC4C[C@@H](O)CC[C@]4(C)C3[C@@H](O)C[C@@]21C (stereo partly drawn) ?
95

Likewise for CO[C@H]1CC[C@@]2(C)C(=CCC3C2[C@@H](O)C[C@@]2(C)C3CC[C@@H]2C(C)=O)C1 (stereo partly drawn) ?
103

Likewise for C[C@]12CCC(=O)C=C1CCC1C2[C@@H](O)C[C@]2(C)C(=O)CCC12 (stereo partly drawn) ?
103

Likewise for C[C@]12CCC(=O)C=C1CCC1C2[C@@H](O)C[C@]2(C)/C(=N/O)CCC12 (stereo partly drawn) ?
133

Likewise for C[C@]12CCC(=O)C=C1CCC1C2[C@@H](O)C[C@@]2(C)C1CC[C@@]21OCC1=O (stereo partly drawn) ?
103

Likewise for CC(=O)[C@H]1CCC2C3CC=C4C[C@@H](O)CC[C@]4(C)C3[C@@](C)(O)C[C@@]21C (stereo partly drawn) ?
119

Likewise for C[C@]12CC/C(=N/O)C=C1CCC1C2[C@@H](O)C[C@]2(C)/C(=N/O)CCC12 (stereo partly drawn) ?
129

Likewise for CN(C)C(=O)C1CCC2C3CCC4CC(=O)CC[C@]4(C)C3[C@@H](O)C[C@]12C (stereo partly drawn) ?
107

Likewise for CC(=O)[C@H]1CCC2C3CCC4C[C@@H](O)CC[C@]4(C)C3[C@@H](O)C[C@@]21C (stereo partly drawn) ?
96

Likewise for C/C(=N/O)[C@H]1CCC2C3CCC4=C/C(=N\O)CC[C@]4(C)C3[C@@H](O)C[C@@]21C (stereo partly drawn) ?
109

Likewise for C[C@]12CCC(=O)C=C1CCC1C2[C@@H](O)C[C@@]2(C)C1CC[C@]2(O)C(=O)O (stereo partly drawn) ?
127

Likewise for C[C@]12C[C@H](O)C3C(CCC4=CC(=O)CC[C@@]43C)C1CCC2C(=O)CO (stereo partly drawn) ?
108

Likewise for CC(O)C1CCC2C3CCC4CC5(CC[C@]4(C)C3[C@@H](O)C[C@]12C)OCCO5 (stereo partly drawn) ?
100

Likewise for C[C@]12CCC(=O)C=C1CCC1C2[C@@H](O)C[C@@]2(C)C1CC[C@@H]2O (stereo partly drawn) ?
106
